System: OVCAR-3
Experiment: Cytotoxicity against human OVCAR-3 cells assessed as inhibition of cell proliferation measured after 72 hrs by CellTiter 96 AQueous One Solution Cell Proliferation assay
Assay type: functional, cell-based
Details: OVCAR-3, 72 h
pIC50: −log10 of the molar value.
Rule: pIC50 under 7 gives Not met, otherwise Met.

| chemical-structure | assay-target | qualitative-label |
| --- | --- | --- |
| CC[C@@]12SS[C@]3(C(=O)N1C)[C@@H](O)[C@]1([C@@]45c6ccccc6N[C@@H]4N4C(=O)[C@]6(CC)SS[C@]4(C(=O)N6C)[C@H]5OC(=O)N(C)C)c4ccccc4N[C@@H]1N3C2=O | OVCAR-3 | Met |
| CC[C@@]12SS[C@]3(C(=O)N1C)[C@@H](O)[C@]1([C@@]45c6ccccc6N[C@@H]4N4C(=O)[C@]6(CC)SS[C@]4(C(=O)N6C)[C@H]5O)c4ccccc4N[C@@H]1N3C2=O | OVCAR-3 | Not met |
| CC(=O)O[C@H]1C(=O)[C@@]2(C)[C@H]([C@H](OC(=O)c3ccccc3)[C@]3(O)C[C@H](OC(=O)[C@H](O)[C@@H](NC(=O)c4ccccc4)c4ccccc4)C(C)=C1C3(C)C)[C@]1(OC(C)=O)CO[C@@H]1C[C@@H]2O | OVCAR-3 | Met |
